Please provide measured self-cleavage for the entries that follow.
B1: HDV Ribozyme (parent)
chain: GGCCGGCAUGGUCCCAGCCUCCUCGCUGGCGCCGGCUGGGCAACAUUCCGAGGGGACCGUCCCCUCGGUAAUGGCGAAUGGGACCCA

# Variants of: B1
# protocol summary: self-cleavage, relative activity (ratio to wild type); higher = more cleavage; co-transcriptional
// return a plain number; no unit text

Problem: Which self-cleavage value belongs to A43C C66A ?
Solution: 0.302

Problem: Then what about the variant C63A A77C ?
Solution: 0.268

Problem: Can you check U12G C14G next?
Solution: 0

Problem: Consider next the variant U9C C15U in the same way.
Solution: 0.776

Problem: For A42G C63U then?
Solution: 0.633

Problem: Do the same for U20A U27G please
Solution: 0

Problem: Repeat with U23G U47G
Solution: 0.731

Problem: How about C13G C75G ?
Solution: 0.128

Problem: Also, C32U U72A please.
Solution: 0.692

Problem: Also need G2C C44A , thanks.
Solution: 0.0449

Problem: Moving on to the next variant: G39A G52C
Solution: 0.394

Hello, the source for this data is the RNAGym collection of RNA variant scans (doi:10.7554/elife.80360), in case you need it.
